The reader will find reported fluorescence intensity at the bottom of the plate decreased by values listed item by item below.
# System: Anti-HRP antibody(r)
# Procedure details: Release of fluorescently labeled switching peptide from immobilized antibody on antigen binding (Table 4)
# Design: species or system rabbit
# Setup conditions: after treatment with antigen HRP
Number in %, nothing else.

Some solved cases for reference:
INSERT INTO assay_data (sequence_chain, result_value) VALUES
  ('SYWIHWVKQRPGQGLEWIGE [H1, SYWIH WVKQR PGQGL EWIGE]', 12.3),
  ('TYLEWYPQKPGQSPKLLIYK [L1, TYLEW YPQKP GQSPK LLIYK]', 12.7),
  ('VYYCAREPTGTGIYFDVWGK [H2, VYYCA REPTG TGIYF DVWGK]', 14.8);

Shift focus to the following entry.
Recorded fluorescence intensity at the bottom of the plate decreased by (sequence VYYCFQGSHVPFTK [L2, VYYCF QGSHV PFTK] ): 25.5

====

# Test system: rabbit anti-HRP antibodies
# Procedure details: Papain treatment of immobilized antibody with bound switching peptide (FIG. 7)
# Format: binding
# Setup conditions: after papain treatment compared to before
# Lookup of reported increase of fluorescence intensity in the solution keyed by entry

Example results:
INSERT INTO results (sequence_chain, result_value) VALUES
  ('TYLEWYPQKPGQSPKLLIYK [L1, TYLEW YPQKP GQSPK LLIYK]', '1,032%'),
  ('VYYCFQGSHVPFTK [L2, VYYCF QGSHV PFTK]', '2,452%'),
  ('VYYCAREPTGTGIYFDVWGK [H2, VYYCA REPTG TGIYF DVWGK]', '2,356%');

Now examine the next entry.
// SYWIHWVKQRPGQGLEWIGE [H1, SYWIH WVKQR PGQGL EWIGE] : increase of fluorescence intensity in the solution value = 2,184%

====

# System: Anti-hCG antibody(m)
# Procedure details: Release of fluorescently labeled switching peptide from immobilized antibody on antigen binding (Table 4)
# Set-up: species or system mouse
Property: In solution (S), Change (%)

Check out these entries, answers already filled in.
INSERT INTO assay_data (sequence_chain, result_value) VALUES
  ('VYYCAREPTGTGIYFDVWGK [H2, VYYCA REPTG TGIYF DVWGK]', '+416%'),
  ('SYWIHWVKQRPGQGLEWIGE [H1, SYWIH WVKQR PGQGL EWIGE]', '+206%');

Measured In solution (S), Change (%), VYYCFQGSHVPFTK [L2, VYYCF QGSHV PFTK] : +456%

According to the records, this sequence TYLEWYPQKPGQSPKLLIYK [L1, TYLEW YPQKP GQSPK LLIYK] displays In solution (S), Change (%) of +187%

====

Consider the following sequences and their measured In solution (S), Change (%) readings.
# Test system: Anti-CRP antibody(r)
# Procedure details: Release of fluorescently labeled switching peptide from immobilized antibody on antigen binding (Table 4)
# Parameters: species or system rabbit

INSERT INTO results (sequence_chain, target_or_test_system, result_value) VALUES
  ('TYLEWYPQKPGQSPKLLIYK [L1, TYLEW YPQKP GQSPK LLIYK]', 'Anti-CRP antibody(r)', '+778%');

// recorded In solution (S), Change (%) for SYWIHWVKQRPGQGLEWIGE [H1, SYWIH WVKQR PGQGL EWIGE] : +152%

Value of measured In solution (S), Change (%) for the entry VYYCFQGSHVPFTK [L2, VYYCF QGSHV PFTK] : +883%

The sequence listed as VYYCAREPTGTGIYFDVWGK [H2, VYYCA REPTG TGIYF DVWGK] has a reported In solution (S), Change (%) of +677%
